- Assay Text: chemical genetic growth profiling, strain panel (AID 1159580);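 also: tested at 20 µM; growth read once vehicle control cultures reached saturation at 30 °C; 1 = growth at the plate median or of vehicle wells; lower values mean less growth of the strain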
- Experimental Setup: S. cerevisiae deletion strains, growth OD, locus YER016W, strain bim1, active compounds read low
Hit rate of the full screen: of about 5,500 compounds, about 2,000 (36%) were called active. Another 18% or so got no clear call; they are omitted. The list shows a part of the results.
Readout Kind: normalized growth
Field format: numeric only.

{"Compound": "CC(=O)Oc1c(C)c(C)c2c(c1C)CCC(C)(CCCC(C)CCCC(C)CCCC(C)C)O2 (configuration not stated)", "Experimental Result": 0.992}
{"Compound": "O=C(O)c1cc(=O)c2ccccc2[nH]1", "Experimental Result": 0.987}
{"Compound": "CC(C)[C@@H]1CC[C@@H](C)CC1=O", "Experimental Result": 0.991}
{"Compound": "C[N+]12CCC(CC1)C(OC(=O)C(O)(c1ccccc1)c1ccccc1)C2 (configuration not stated)", "Experimental Result": 0.989}
{"Compound": "Cc1cc2nc3c(=O)[nH]c(=O)nc-3n(CC(O)C(O)C(O)CO)c2cc1C (configuration not stated)", "Experimental Result": 0.994}

The reported value for CNC(=O)N(C)c1nnc(C(C)(C)C)s1 in terms of normalized growth is 0.987

The compound identified as CC(=O)NC1C(O)OC(COS(=O)(=O)O)C(OC2OC(C(=O)O)C(OC3OC(CO)C(OC4OC(C(=O)O)C(O)C(O)C4OS(=O)(=O)O)C(OS(=O)(=O)O)C3NS(=O)(=O)O)C(O)C2OS(=O)(=O)O)C1O (configuration not stated) registered its normalized growth at 0.982

###

- Assay Text: chemical genetic growth profiling, strain panel (AID 1159580);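 also: tested at 20 µM; growth read once vehicle control cultures reached saturation at 30 °C; 1 = growth at the plate median or of vehicle wells; lower values mean less growth of the strain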
- Experimental Setup: S. cerevisiae deletion strains, growth OD, locus YNL271C, strain bni1, active compounds read low
About 2,000 (36%) of roughly 5,500 compounds were called active. Another 18% or so got no clear call; they are omitted. The list shows a part of the results.
# normalized growth per record follows
Just the number, please, no unit after it.

Check out these entries, answers already filled in.
{"Molecule": "CC(C)N1C(=O)c2ccccc2NS1(=O)=O", "Experimental Result": 0.998}
{"Molecule": "CC(=O)OC[C@@]1(O)C[C@@]23CCC4c5ccoc5CC[C@]4(C)C2CC[C@@H]1C3 (stereo partly drawn)", "Experimental Result": 0.975}

For this molecule ( CCCC(=O)Nc1ccc(OCC(O)CNC(C)C)c(C(C)=O)c1 (stereo not drawn) ), measured normalized growth is 1.02

###

- Assay Text: chemical genetic growth profiling, strain panel (AID 1159580);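 also: tested at 20 µM; growth read once vehicle control cultures reached saturation at 30 °C; 1 = growth at the plate median or of vehicle wells; lower values mean less growth of the strain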
- Experimental Setup: S. cerevisiae deletion strains, growth OD, locus YGR040W, strain KSS1
About 2,000 (36%) of roughly 5,500 compounds were called active. About 18% were inconclusive and are not listed. Cut-off read from the data, not from the text of the source: active = normalized growth mostly below about 0.91 (no sharp cut-off); inconclusive = no clear call, values can overlap the other calls; inactive = mostly above about 0.92. The list shows a part of the results.
Use one of these outcomes when replying: TRUE = active, FALSE = inactive

{"Compound": "O=[N+]([O-])c1cc(C(F)(F)F)ccc1Sc1n[nH]c(-c2cc(Cl)cc(Cl)c2)n1", "Discrete Label": "TRUE"}

In: Please indicate how the test categorized O=C(OCCNc1ccc([N+](=O)[O-])cn1)c1ccc([N+](=O)[O-])o1 .
Out: FALSE

In: Record lookup: outcome of this test for CC(C)(C)c1ccc(-c2cc(NC(=O)c3ccc(Cl)cc3)n[nH]2)cc1 ?
Out: FALSE

In: So what was the verdict on CCOC(=O)c1cnc(-c2ccccn2)[nH]c1=O in this test?
Out: FALSE

In: Please indicate how the test categorized N/C(=N/OCc1c(F)cccc1Cl)c1ccc(Cl)cc1 .
Out: FALSE

In: Could you check what this test reported for O=C1c2ccccc2C(=O)c2sccc21 ?
Out: TRUE

In: Entry COC(=O)c1cccc(NS(=O)(=O)c2ccc(Cl)c(Cl)c2)c1 : call = ?
Out: FALSE

In: # fetch the recorded call for O=S(=O)(Nc1cc(C(F)(F)F)cc(C(F)(F)F)c1)c1ccc(Cl)s1 here
Out: FALSE

In: Call for entry COC(=O)c1sccc1S(=O)(=O)Nc1cc(C(F)(F)F)cc(C(F)(F)F)c1 :
Out: FALSE

In: Which outcome was entered for the compound N#CC(C(=O)Nc1cccc(C(F)(F)F)c1)C(=S)Nc1ccccc1Cl (stereo unspecified) in this test?
Out: TRUE

In: Entry CC1SC(c2cccnc2)N(c2ccc(Cl)cc2)C1=O (stereo unspecified) : call = ?
Out: TRUE

In: In this assay, the call recorded for CC(C)Sc1c(Cl)cccc1NC(=O)Nc1cccc(C(F)(F)F)c1 was what?
Out: FALSE

In: Please share the test call associated with O=[N+]([O-])c1ccc(NCc2ccc(Cl)c(Cl)c2)nc1 .
Out: FALSE

In: Hey, what did the test say about CC(=O)c1ccc(Sc2ccccc2)c([N+](=O)[O-])c1 ?
Out: FALSE

In: Assay outcome for CC1SC(c2cccnc2)N(c2ccc(F)cc2F)C1=O (stereo unspecified) : what was it?
Out: FALSE

In: Entry CCOC(=O)C(NC(=O)c1cccc(Cl)c1)(Nc1nc2ccccc2s1)C(F)(F)F (stereo unspecified) : call = ?
Out: FALSE

In: Called result for CCOC(=O)C(O)(c1ccc(NC(=O)c2ccc(Cl)c(Cl)c2)cc1)C(F)(F)F (stereo unspecified)
Out: FALSE

In: Called result for Cc1ccc2nc3c(nc2c1)-c1ccccc1C3=O
Out: TRUE
